Values from ChEMBL document CHEMBL1909046

# tested target: UniProt P28335
# Sequence (P28335 whole entry): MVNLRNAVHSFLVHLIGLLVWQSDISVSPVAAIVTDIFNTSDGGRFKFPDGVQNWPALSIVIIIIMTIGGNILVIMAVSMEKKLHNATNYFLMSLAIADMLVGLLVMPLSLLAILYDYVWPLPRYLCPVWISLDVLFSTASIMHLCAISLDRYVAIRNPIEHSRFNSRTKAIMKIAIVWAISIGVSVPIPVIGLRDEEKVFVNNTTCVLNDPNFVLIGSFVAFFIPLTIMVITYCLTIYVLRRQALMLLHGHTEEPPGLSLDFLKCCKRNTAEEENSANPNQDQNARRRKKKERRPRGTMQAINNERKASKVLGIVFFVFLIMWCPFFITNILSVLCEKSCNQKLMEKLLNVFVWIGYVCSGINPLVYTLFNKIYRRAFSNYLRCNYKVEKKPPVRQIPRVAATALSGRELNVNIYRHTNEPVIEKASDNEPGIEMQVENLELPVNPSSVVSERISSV
# procedure summary: DRUGMATRIX: Serotonin (5-Hydroxytryptamine) 5-HT2C radioligand binding (ligand: [3H] Mesulergine)
# Type: cell membranes, CHO-K1, Membrane
# measurement context: Not Active = under 50% inhibition at 10 µM; read-out: IC50
pIC50: −log10 of the molar value.
pIC50 of 6 or higher: true. Under 6: false.

hey, is pIC50 for this one >= 6? "CCCCNc1ccc(C(=O)OCCN(C)C)cc1"
false

hey, is pIC50 for this one >= 6? "CO[C@@H]1[C@@H](OC)[C@H](C)[C@@](O)(CC(=O)O)O[C@H]1[C@H](C)[C@H]1O[C@@]2(CC[C@@](C)([C@H]3CC[C@@](C)([C@@H]4O[C@@H]([C@H]5O[C@](C)(O)[C@H](C)C[C@@H]5C)C[C@@H]4O[C@@H]4C[C@H](OC)[C@@H](OC)[C@H](C)O4)O3)O2)C[C@H](O)[C@H]1C"
true

hey, is pIC50 for this one >= 6? Cc1c(C)c2c(c(C)c1O)CCC(C)(CN1CCN(c3cc(N4CCCC4)nc(N4CCCC4)n3)CC1)O2 (configuration not stated)
false

hey, is pIC50 for this one >= 6? "CN(C)CC[C@@H](c1ccc(Cl)cc1)c1ccccn1"
false

###

# tested target: Muscarinic acetylcholine receptor M5 (Homo sapiens); further: in other assays of this panel Not Active means under 50% inhibition at 10 µM
# Sequence (P08912 whole entry): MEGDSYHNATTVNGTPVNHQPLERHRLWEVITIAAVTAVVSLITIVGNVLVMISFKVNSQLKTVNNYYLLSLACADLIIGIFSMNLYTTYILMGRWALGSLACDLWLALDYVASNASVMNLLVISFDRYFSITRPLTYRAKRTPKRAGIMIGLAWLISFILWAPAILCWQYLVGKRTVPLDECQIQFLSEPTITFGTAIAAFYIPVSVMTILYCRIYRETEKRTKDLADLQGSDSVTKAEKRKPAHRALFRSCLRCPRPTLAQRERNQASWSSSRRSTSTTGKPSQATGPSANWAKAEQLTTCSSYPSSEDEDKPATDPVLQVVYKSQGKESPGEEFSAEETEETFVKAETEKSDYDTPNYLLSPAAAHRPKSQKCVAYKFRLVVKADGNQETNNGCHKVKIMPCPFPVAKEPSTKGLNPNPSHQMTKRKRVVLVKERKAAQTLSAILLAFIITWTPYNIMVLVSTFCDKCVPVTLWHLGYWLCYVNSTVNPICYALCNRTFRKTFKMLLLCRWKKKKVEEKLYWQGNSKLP
# Assay type: cell membranes, CHO-K1, Membrane
# measurement context: read-out: Ki
Could you please report measured pKi for the items listed next?
// returns pKi (minus log10 of molar concentration), number only

Query (compound): CCN(CC)CCOc1ccc(/C(=C(/Cl)c2ccccc2)c2ccccc2)cc1 [ENCLOMIPHENE] ; field requested: pKi
5.90

Query (compound): CN[C@H]1CC[C@@H](c2ccc(Cl)c(Cl)c2)c2ccccc21 [SERTRALINE] ; field requested: pKi
6.44

Query (compound): CN(C)CC[C@@H](c1ccc(Cl)cc1)c1ccccn1 [DEXCHLORPHENIRAMINE] ; field requested: pKi
6.13

Query (compound): OC(CCCN1CCCCC1)(c1ccccc1)c1ccccc1 [DIPHENIDOL] ; field requested: pKi
6.07

###

# procedure summary: DRUGMATRIX: Imidazoline I2, Central radioligand binding (ligand: [3H] Idazoxan)
# Assay type: cell membranes, Rattus norvegicus, Wistar, Cerebral cortex, Membrane
# measurement context: Not Active = under 50% inhibition at 10 µM; read-out: IC50
Could you please report measured pIC50 for the items listed next?
// returns pIC50 (minus log10 of molar concentration), number only

Query (compound): "Brc1c(NC2=NCCN2)ccc2nccnc12" ; field requested: pIC50
7.13

Query (compound): "CN(C)CC[C@@H](c1ccc(Cl)cc1)c1ccccn1" ; field requested: pIC50
4.82

Query (compound): COc1cc2nc(N3CCN(C(=O)C4CCCO4)CC3)nc(N)c2cc1OC (stereo not drawn) ; field requested: pIC50
5.90

Query (compound): "N=C(N)NC(=O)Cc1c(Cl)cccc1Cl" ; field requested: pIC50
7.35

Query (compound): COc1ccc(CCN(C)CCCC(C#N)(c2ccc(OC)c(OC)c2)C(C)C)cc1OC (stereo not drawn) ; field requested: pIC50
5.26

Query (compound): COc1ccc2cc3[n+](cc2c1OC)CCc1cc2c(cc1-3)OCO2.[Cl-] [BERBERINE CHLORIDE] ; field requested: pIC50
5.89

Query (compound): "Clc1ccccc1CN1CCc2sccc2C1" ; field requested: pIC50
5.65

Query (compound): "CO[C@@H]1[C@@H](OC)[C@H](C)[C@@](O)(CC(=O)O)O[C@H]1[C@H](C)[C@H]1O[C@@]2(CC[C@@](C)([C@H]3CC[C@@](C)([C@@H]4O[C@@H]([C@H]5O[C@](C)(O)[C@H](C)C[C@@H]5C)C[C@@H]4O[C@@H]4C[C@H](OC)[C@@H](OC)[C@H](C)O4)O3)O2)C[C@H](O)[C@H]1C" ; field requested: pIC50
6.22

###

Below are compounds with their IC50 as measured on Voltage-gated inwardly rectifying potassium channel KCNH2 (Homo sapiens).
Sequence (Q12809 whole entry): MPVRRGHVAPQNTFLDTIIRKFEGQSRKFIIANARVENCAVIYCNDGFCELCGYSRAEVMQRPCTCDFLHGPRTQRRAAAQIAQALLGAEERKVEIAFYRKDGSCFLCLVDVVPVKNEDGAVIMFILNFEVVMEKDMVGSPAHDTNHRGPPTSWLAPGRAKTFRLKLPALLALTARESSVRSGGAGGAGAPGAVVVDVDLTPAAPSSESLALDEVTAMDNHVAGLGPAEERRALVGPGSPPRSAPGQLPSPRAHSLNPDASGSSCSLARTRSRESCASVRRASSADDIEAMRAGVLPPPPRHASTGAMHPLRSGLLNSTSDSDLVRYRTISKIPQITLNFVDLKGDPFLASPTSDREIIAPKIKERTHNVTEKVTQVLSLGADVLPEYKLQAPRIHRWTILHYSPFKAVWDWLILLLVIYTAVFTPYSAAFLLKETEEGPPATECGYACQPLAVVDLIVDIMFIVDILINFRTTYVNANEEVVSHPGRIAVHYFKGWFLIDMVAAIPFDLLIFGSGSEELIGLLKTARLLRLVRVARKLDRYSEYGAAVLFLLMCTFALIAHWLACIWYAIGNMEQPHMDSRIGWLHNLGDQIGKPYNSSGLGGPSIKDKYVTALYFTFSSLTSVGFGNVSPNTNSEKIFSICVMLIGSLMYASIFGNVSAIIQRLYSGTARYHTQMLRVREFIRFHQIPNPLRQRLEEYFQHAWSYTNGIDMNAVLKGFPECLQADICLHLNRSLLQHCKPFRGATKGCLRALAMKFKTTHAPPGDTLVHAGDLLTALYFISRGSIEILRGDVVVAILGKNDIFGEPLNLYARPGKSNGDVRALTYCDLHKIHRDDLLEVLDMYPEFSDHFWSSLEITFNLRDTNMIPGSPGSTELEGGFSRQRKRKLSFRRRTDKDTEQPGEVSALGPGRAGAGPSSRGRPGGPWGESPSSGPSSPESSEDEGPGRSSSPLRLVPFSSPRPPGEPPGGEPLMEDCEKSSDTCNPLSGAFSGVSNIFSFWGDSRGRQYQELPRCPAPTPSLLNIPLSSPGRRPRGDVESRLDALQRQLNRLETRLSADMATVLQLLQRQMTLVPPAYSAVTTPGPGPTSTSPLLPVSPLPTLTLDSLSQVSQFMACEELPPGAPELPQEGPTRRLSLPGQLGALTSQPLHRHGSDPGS
Your answer is read as µM, so omit the unit and give the number.

Query (compound): COc1cc2nc(N3CCN(C(=O)c4ccco4)CC3)nc(N)c2cc1OC [PRAZOSIN] ; field requested: IC50
24.3

Query (compound): CN[C@H]1CC[C@@H](c2ccc(Cl)c(Cl)c2)c2ccccc21 [SERTRALINE] ; field requested: IC50
8.32

Query (compound): CCN(CC)CCOCCC1=CCC2CC1C2(C)C (stereo not drawn) [MYRTECAINE] ; field requested: IC50
5.9

###

# procedure summary: DRUGMATRIX: Atrial Natriuretic Factor (ANF) radioligand binding (ligand: [125I] ANF (rat))
# Type: cell membranes, Cavia porcellus, Dunkin-Hartley, Adrenal gland, Membrane
# measurement context: Not Active = under 50% inhibition at 10 µM
measured property: IC50

Example entries and their recorded answers appear below.
molecule	result
Cc1cccc(C)c1OCC(C)N (stereo not drawn) [MEXILETINE]	Not Active
CC(C(=O)O)c1ccc2oc(-c3ccc(Cl)cc3)nc2c1 (stereo not drawn) [BENOXAPROFEN]	Not Active
CCC(=O)O[C@]1(C(=O)CCl)[C@@H](C)C[C@H]2[C@@H]3CCC4=CC(=O)C=C[C@]4(C)[C@@]3(F)[C@@H](O)C[C@@]21C [CLOBETASOL PROPIONATE]	Not Active
CC[C@H]1CN2CCc3cc(OC)c(OC)cc3[C@@H]2C[C@@H]1C[C@H]1NCCc2cc(OC)c(OC)cc21 [EMETINE]	Not Active
COC(=O)Nc1nc2ccc([S+]([O-])c3ccccc3)cc2[nH]1 (stereo not drawn) [OXFENDAZOLE]	Not Active

Query (molecule): O=c1cnn([C@@H]2O[C@H](CO)[C@@H](O)[C@H]2O)c(=O)[nH]1 [6-AZAURIDINE] ; field requested: IC50
Not Active

###

# tested target: Cytochrome P450 2A6 (Homo sapiens, UniProt P11509); further: in other assays of this panel Not Active means under 50% inhibition at 10 µM
# Sequence (P11509 whole entry): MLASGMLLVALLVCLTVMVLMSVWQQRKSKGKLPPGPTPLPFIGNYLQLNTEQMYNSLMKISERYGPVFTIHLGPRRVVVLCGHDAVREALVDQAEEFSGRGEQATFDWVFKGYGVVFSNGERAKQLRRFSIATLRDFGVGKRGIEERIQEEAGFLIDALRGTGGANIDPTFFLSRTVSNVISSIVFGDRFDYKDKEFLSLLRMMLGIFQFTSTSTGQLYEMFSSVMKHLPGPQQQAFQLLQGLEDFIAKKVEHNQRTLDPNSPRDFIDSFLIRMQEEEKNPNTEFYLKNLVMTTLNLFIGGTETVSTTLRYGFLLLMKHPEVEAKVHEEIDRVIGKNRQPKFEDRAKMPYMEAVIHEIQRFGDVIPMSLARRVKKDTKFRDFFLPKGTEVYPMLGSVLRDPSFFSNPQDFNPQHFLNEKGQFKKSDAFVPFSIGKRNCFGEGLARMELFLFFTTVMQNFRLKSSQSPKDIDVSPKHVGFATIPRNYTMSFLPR
# measurement context: bti-tn-5b1-4
measured property: Ki

In [3]: df
Out[3]:
                   substance      result
0                 GENTAMICIN  Not Active
1                   NYSTATIN  Not Active
2                  AURANOFIN  Not Active
3  GADOPENTETATE DIMEGLUMINE  Not Active
4          SODIUM ORTHOVANAD  Not Active

Query (substance): MANGANESE CHLORIDE ANHYDROUS ; field requested: Ki
Not Active

Query (substance): "GRAMICIDIN" ; field requested: Ki
Not Active

###

# procedure summary: DRUGMATRIX: Serotonin (5-Hydroxytryptamine) 5-HT3 radioligand binding (ligand: [3H] GR-65630)
# Type: cell membranes, Membrane
# measurement context: hek293; Not Active = under 50% inhibition at 10 µM
measured property: Ki

Example entries and their recorded answers appear below.
>>> df
                                   compound  measured_property      result
0  NC(=O)N1C(=O)/C(=C(\O)c2cccs2)c2cc(Cl)ccc21                 Ki  Not Active
1  Nc1ccn([C@@H]2O[C@H](CO)[C@@H](O)[C@@H]2O)c(=O)n1                 Ki  Not Active
2  C#CC1(O)CC[C@H]2[C@@H]3CCC4=CC(=O)CC[C@@H]4[C@H]3CC[C@@]21CC (stereo not given in full)                 Ki  Not Active
3  O.O.O.O.O.O.[Cl-].[Cl-].[Sr+2] [STRONTIUM CHLORIDE HEXAHYDRATE]                 Ki  Not Active

Query (compound): NC1CCN(c2nc3c(cc2F)c(=O)c(C(=O)O)cn3-c2ccc(F)cc2F)C1 (stereo not given) ; field requested: Ki
Not Active
